# system-name: cGAS (Homo sapiens)
# Sequence (Q8N884 whole entry): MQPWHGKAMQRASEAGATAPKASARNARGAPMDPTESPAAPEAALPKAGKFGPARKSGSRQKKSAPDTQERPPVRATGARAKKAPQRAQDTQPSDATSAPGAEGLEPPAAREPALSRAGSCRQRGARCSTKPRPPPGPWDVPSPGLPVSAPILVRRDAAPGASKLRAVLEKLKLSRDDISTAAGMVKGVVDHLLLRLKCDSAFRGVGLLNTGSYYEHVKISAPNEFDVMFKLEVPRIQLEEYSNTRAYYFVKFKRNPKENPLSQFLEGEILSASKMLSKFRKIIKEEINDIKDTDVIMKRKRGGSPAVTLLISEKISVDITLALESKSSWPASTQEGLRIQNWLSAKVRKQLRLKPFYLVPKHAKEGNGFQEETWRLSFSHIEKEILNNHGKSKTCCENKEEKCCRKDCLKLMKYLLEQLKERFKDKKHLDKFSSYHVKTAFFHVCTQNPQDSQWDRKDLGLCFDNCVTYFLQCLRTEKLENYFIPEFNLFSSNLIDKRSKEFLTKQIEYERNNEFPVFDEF
# test-description: Transcreener cGAS enzymatic assay (FP)
# Type: biochemical
# condition-parameters: standard conditions: 100 μM ATP and GTP, 62.5 nM bp ISD, 60 minute reactions; read-out: IC50 FP Standard

compound: Cc1nc(N2C[C@@H](CC(=O)Nc3cccc(C(F)(F)F)c3)C[C@H]2C(=O)O)c2oc3ccccc3c2n1 [Compound 25]
IC50: 200 to 1000 nM
//
compound: Cc1nc(N2C[C@@H](CC(=O)Nc3ccc4ncccc4c3)C[C@H]2C(=O)O)c2oc3ccccc3c2n1 [Compound 32]
IC50: 50 to 100 nM
//
compound: Cc1nc(N2C[C@@H](CC(=O)Nc3ccc(Cc4ccccc4)cc3)C[C@H]2C(=O)O)c2oc3ccccc3c2n1 [Compound 54]
IC50: 50 to 100 nM
//
compound: Cc1nc(N2C[C@@H](CC(=O)Nc3ccc(-c4cccc5[nH]ncc45)cc3)C[C@H]2C(=O)O)c2oc3ccccc3c2n1 [Compound 46]
IC50: < 50 nM
